measurement.target: Aurora2 kinase (Homo sapiens)
Construct: A complete recombinant Aurora2 enzyme; His tag (N); made in house; host or cells: E. coli
Sequence (O14965 1-403): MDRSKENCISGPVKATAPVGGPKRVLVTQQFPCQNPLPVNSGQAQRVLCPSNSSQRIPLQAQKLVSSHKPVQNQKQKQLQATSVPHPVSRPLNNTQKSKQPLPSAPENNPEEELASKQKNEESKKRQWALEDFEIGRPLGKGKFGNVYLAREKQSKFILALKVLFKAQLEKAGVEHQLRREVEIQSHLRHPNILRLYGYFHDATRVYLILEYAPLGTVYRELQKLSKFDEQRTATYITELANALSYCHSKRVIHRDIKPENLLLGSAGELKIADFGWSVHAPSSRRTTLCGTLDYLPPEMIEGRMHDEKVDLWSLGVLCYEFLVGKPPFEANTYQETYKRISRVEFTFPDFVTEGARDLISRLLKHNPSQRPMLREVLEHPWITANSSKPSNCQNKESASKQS
procedure.details: Aurora2 kinase radioactivity scintillation assay using nickel chelate (NuMA substrate)
Type: biochemical
assay.setup: 10 μM; read-out: Aurora2 % inhib at 10 μM
observation.type: inhibition at 10 µM

1) CS(=O)(=O)c1ccccc1S(=O)(=O)Nc1ccc2[nH]nc(-c3ccc(Br)cc3)c2c1: 89%
2) CS(=O)(=O)c1ccccc1S(=O)(=O)Nc1ccc2[nH]nc(-c3ccccc3Cl)c2c1: 67%
3) COc1cccc(S(=O)(=O)Nc2ccc3[nH]nc(-c4ccccc4)c3c2)c1: 99%
4) CC(=O)Nc1n[nH]c2ccc(NS(=O)(=O)c3ccccc3S(C)(=O)=O)cc12: 85%
5) N#Cc1ccc(S(=O)(=O)Nc2ccc3[nH]nc(-c4ccccc4)c3c2)cc1: 64%
6) O=C(Nc1ccccc1)c1n[nH]c2ccc(NS(=O)(=O)c3cccc(F)c3)cc12: 84%
7) CS(=O)(=O)c1ccccc1S(=O)(=O)Nc1ccc2[nH]nc(-c3cccc(F)c3F)c2c1: 84%

Please examine the following record next.
Exercise: Retrieve inhibition at 10 µM measured for `CCCCS(=O)(=O)Nc1ccc2[nH]nc(-c3ccccc3)c2c1` and print it.
Key: 64%
